# test_system: Cytochrome P450 2C19 (Homo sapiens)
# protocol_notes: Cytochrome P450 Family 2 Subfamily C Member 19 (CYP2C19) small molecule antagonists: luciferase reporter qHTS assay (AID 1671197); also: nearly all actives have a fitted effect of over 65% in size
# assay_setup: P450-Glo CYP2C19 enzyme, luciferin luminescence, 1 h; series mostly up to 115 µM
Results filed as inconclusive are left out. Active and inactive are the calls of the source. Calls follow the shape of the dose curve; as a rule, active = well fitted inhibition curve with a large enough effect in the repeat runs; inconclusive = weak or mixed curves; inactive = no such curve, though single readings can be large or run the other way.
Pick one: active, inactive

Field: outcome | Entry: CCC1Nc2cc(Cl)c(S(N)(=O)=O)cc2S(=O)(=O)N1 (stereo not drawn)
inactive

Field: outcome | Entry: "CCCCCCCC[Si](OCC)(OCC)OCC"
inactive

Field: outcome | Entry: CCC(C)(CCC(C)C)C(=O)[O-].CCC(C)(CCC(C)C)C(=O)[O-].[Zn+2] (stereo not drawn)
active

Field: outcome | Entry: COCC(=O)Nc1c(I)c(C(=O)NCC(O)CO)c(I)c(C(=O)N(C)CC(O)CO)c1I (stereo not drawn)
inactive

Field: outcome | Entry: NC(Cc1c[nH]c2ccccc12)C(=O)O (stereo not drawn)
active

Field: outcome | Entry: "O=C1OC(=O)c2ccccc21"
inactive

Field: outcome | Entry: CCCCCN(CCCOC)C(=O)C(CCC(=O)O)NC(=O)c1ccc(Cl)c(Cl)c1 (stereo not drawn)
inactive

Field: outcome | Entry: "CCC(CO)CO"
inactive

====

# protocol_notes: qHTS assay for small molecules that induce genotoxicity in human embryonic kidney cells expressing luciferase-tagged ATAD5 - cell viability (AID 651634); also: nearly all actives have a fitted effect of over 25% in size
# assay_setup: HEK293T ATAD5-luc cells viability, CellTiter-Fluor, 15.5 h; series mostly up to 83.3 µM
# Excerpt: National Center for Advancing Translational Sciences [NCATS] NIH Chemical Genomics Center [NCGC] U.S. Environmental Protection Agency [EPA] National Institutes of Environmental Health Sciences [NIEHS] National Toxicology Program [NTP] U.S. Food and Drug Administration [FDA] Enhanced Level of Genome Instability Gene 1 (ELG1; human ATAD5) protein levels increase in response to various types of DNA damage. […]
Inconclusive results are not listed. Active and inactive are the calls of the source. The call rests on the fitted dose curve.
Pick one: active, inactive

Field: outcome | Entry: "CNC(=O)C(c1ccccc1)c1ccccc1"
inactive

Field: outcome | Entry: "O=C(O)Cc1cccc(-c2cc(CCCCCCc3ccc(O[C@H]4O[C@H](CO)[C@@H](O)[C@H](O)[C@@H]4O)c(-c4cccc(CC(=O)O)c4)c3)ccc2O[C@H]2O[C@H](CO)[C@@H](O)[C@H](O)[C@@H]2O)c1"
inactive

Field: outcome | Entry: "CC1=CC[C@H](CC=O)C1(C)C"
inactive

Field: outcome | Entry: "OC[C@@H](O)[C@H](O)[C@@H](O)[C@@H](O)CO"
inactive

Field: outcome | Entry: "CC(C)(C)c1ccc(C=O)cc1"
inactive

Field: outcome | Entry: "CCCOCCOCCOCCO"
inactive

Field: outcome | Entry: "CCCCCCCCCCCCCCCC(=O)NCCO"
inactive

Field: outcome | Entry: CC(=O)OC(C)c1ccccc1 (centres undefined)
inactive

Field: outcome | Entry: "CCCOC(=O)CCCCC(=O)OCCC"
inactive

Field: outcome | Entry: "CCCCC[Si](OCC)(OCC)OCC"
inactive

Field: outcome | Entry: "C[C@H](CCC(=O)NCC(=O)O)[C@H]1CC[C@H]2[C@@H]3[C@H](O)C[C@@H]4C[C@H](O)CC[C@]4(C)[C@H]3C[C@H](O)[C@]12C"
inactive

Field: outcome | Entry: "C=CCOc1c(Br)cc(C(C)(C)c2cc(Br)c(OCC=C)c(Br)c2)cc1Br"
inactive

Field: outcome | Entry: COCC(=O)Nc1c(I)c(C(=O)NCC(O)CO)c(I)c(C(=O)N(C)CC(O)CO)c1I (centres undefined)
inactive

Field: outcome | Entry: "CCOC(=O)OCC/C(SC(=O)OCC)=C(\C)N(C=O)Cc1cnc(C)nc1N"
inactive

Field: outcome | Entry: "COc1cc2c(Nc3ccc(Br)cc3F)ncnc2cc1OCC1CCN(C)CC1"
active

Field: outcome | Entry: "CCOC(=O)C(C)(C)C"
inactive

Field: outcome | Entry: "CNC(=O)NC"
inactive

Field: outcome | Entry: "CCCCCCCCOC(C)=O"
inactive

Field: outcome | Entry: "CCCCCCCC/C=C\CCCCCCCC(=O)OC[C@@H](O)[C@H]1OC[C@H](O)[C@H]1O"
inactive

Just for reference, PubChem BioAssay (Tox21) is where these values come from.
